System: EKVX
testDetails: NCI tumour cell line growth inhibition, 48 h
Activity calls are given as the source filed them. No stated cut-off is given here; in the data, active = GI50 up to about 1.1 µM and inactive = higher. Non-standard residues stand in square brackets, D forms with d. Residues, ends and D or L forms follow the SMILES beside them. ξ: configuration not given here. Pentanoyl(2-O,4-OH,5-Cl) = O=C(O)C(O)CC(O)CCl; Ile(3ξ) = CCC(C)[C@H](N)C(=O)O; NMeV = CN[C@H](C(=O)O)C(C)C; NMeA = CN[C@@H](C)C(=O)O; βAla = NCCC(=O)O
Choose one outcome from this list and give only that: 1.0 (active), 0.0 (inactive)

Inquiry: Per the assay record, what outcome was assigned to C[N+]1([O-])C2CCC1CC(OC(=O)C(CO)c1ccccc1)C2 (centres undefined) ?
Reply text: 0.0

Inquiry: What would you report for CC(C)C1=CC23CCC4C(C)(C(=O)O)CCCC4(C)C2CC1C1C(=O)N(c2ccccc2N2C(=O)C4C5CC6C7(C)CCCC(C)(C(=O)O)C7CCC6(C=C5C(C)C)C4C2=O)C(=O)C13 (centres undefined) ?
Reply text: 0.0

Inquiry: What would you report for O=C1C2CCCCC2C(=O)N1n1c(Cc2ccccc2)n[nH]c1=O (centres undefined) ?
Reply text: 0.0

Inquiry: What would you report for COc1ccc2[nH]c3c(C)c4ccncc4c(C)c3c2c1 ?
Reply text: 1.0

Inquiry: What would you report for CC(=O)Oc1ccc2c(c1)oc1c3ccc(OC(C)=O)cc3n(C)c(=O)c21 ?
Reply text: 0.0

Inquiry: What would you report for COC(=O)c1c(OC(C)=O)ccc2c1c1c(OC(C)=O)c3ccccc3c(OC(C)=O)c1n2C ?
Reply text: 0.0

Inquiry: What would you report for CCC(C)[C@@H]1NC(=O)[C@@H]2CCCN2C(=O)C(CC(O)CCl)OC(=O)CCNC(=O)[C@H](C)N(C)C(=O)[C@H](C(C)C)N(C)C1=O (some centres undefined) (cyclo([Ile(3ξ)][NMeV][NMeA][βAla][Pentanoyl(2-O,4-OH,5-Cl)]P)) ?
Reply text: 0.0

Inquiry: What would you report for O/N=C1\CSc2ccccc2C1 ?
Reply text: 0.0

Inquiry: What would you report for COC(=O)c1sc(=S)sc1SCc1ccccc1CSc1sc(=S)sc1C(=O)OC ?
Reply text: 0.0

* * *

System: SNB-19
testDetails: NCI tumour cell line growth inhibition, 48 h
Active and inactive are the calls of the source. No stated cut-off is given here; in the data, active = GI50 up to about 1.1 µM and inactive = higher.
measureName: GI50

Inquiry: // GI50 lookup, key: Cc1[nH]c(-c2ccccc2)c(-c2ccc(Cl)cc2)c1C(=O)ONC(=O)c1ccccc1
Reply text: 4.86 µM (inactive)

Inquiry: What would you report for Cc1c(C(=O)O)n(C)c(=O)n(C)c1=O ?
Reply text: > 100 µM (inactive)

Inquiry: What would you report for CC(C)(C)OC(=O)C1CC[C@@H](CC(=O)Oc2ccc([N+](=O)[O-])cc2)N1 (stereo not given in full) ?
Reply text: > 100 µM (inactive)

Inquiry: What would you report for CCCNC(=O)Nc1ccc2c(c1)Cc1cc(N(CCCl)CCCl)ccc1-2 ?
Reply text: 19.2 µM (inactive)

Inquiry: What would you report for O=C1C=C(Sc2ccccc2)c2nccc3c2c1nc1ccccc13 ?
Reply text: 37.2 µM (inactive)

* * *

Test system: CAKI-1
testDetails: NCI tumour cell line growth inhibition, 48 h
Activity calls are given as the source filed them. Cut-off read from the data, not from the text of the source: active = GI50 up to about 1.1 µM and inactive = higher.
Choose one outcome from this list and give only that: TRUE = active, FALSE = inactive

Inquiry: Per the assay record, what outcome was assigned to C[N+]1([O-])C2CCC1CC(OC(=O)C(CO)c1ccccc1)C2 (configuration not stated) ?
Reply text: FALSE

Inquiry: What would you report for CN1C/C(=C\c2ccc(Cl)cc2)C(=O)/C(=C/c2ccc(Cl)cc2)C1 ?
Reply text: FALSE

Inquiry: What would you report for CCCc1cc(=O)oc2c3c(c4c(c12)OC(C)(C)C=C4)O[C@@H](C)[C@H](C)C3=O ?
Reply text: FALSE

Inquiry: What would you report for COc1ccc(/C=C\c2cc(OC)c(OC)c(OC)c2)cc1OC(=O)CC(N)C(=O)O (configuration not stated) ?
Reply text: TRUE

Inquiry: What would you report for Cc1c(C(=O)O)n(C)c(=O)n(C)c1=O ?
Reply text: FALSE

Inquiry: What would you report for CN(C)/C=N\c1nncc2[nH]cnc12 ?
Reply text: FALSE

Inquiry: What would you report for O=C1C2CCCCC2C(=O)N1n1c(Cc2ccccc2)n[nH]c1=O (configuration not stated) ?
Reply text: FALSE

Inquiry: What would you report for COC(=O)[C@@H]1CN(C(C)=O)C(=O)N1 ?
Reply text: FALSE

Inquiry: What would you report for N#Cc1ccc(C2SCc3nc4ccccc4n32)cc1 (configuration not stated) ?
Reply text: FALSE

Inquiry: What would you report for N=C(N)c1ccc(/N=N\c2c(O)ccc3cc4c(/N=N\c5ccc(C(=N)N)cc5)c(O)ccc4cc23)cc1 ?
Reply text: FALSE

Inquiry: What would you report for NS(=O)(=O)c1ccc(Nc2c3ccccc3nc3c(C(=O)NC(CO)(CO)CO)cccc23)cc1 ?
Reply text: TRUE

Inquiry: What would you report for CC(C)(C)C1CC[C@H](O)[C@H]([C@@H](O)CC2CC(=O)N(c3ccccc3)C(=O)C2)C1 (some centres not stated) ?
Reply text: FALSE

Inquiry: What would you report for COc1ccc(-c2ccccc2)c2[nH]c3c(c12)CCNC3=O ?
Reply text: FALSE

Inquiry: What would you report for N#CSC1CCCCNC1=O (configuration not stated) ?
Reply text: FALSE

Inquiry: What would you report for CC1(C)CC(=O)C2=C(C1)NC(SCC(=O)O)=C(C#N)C2c1ccc(Br)cc1 (configuration not stated) ?
Reply text: FALSE

Inquiry: What would you report for N#Cc1c(O)c(C=O)c(=O)n2c1[nH]c1ccccc12 ?
Reply text: FALSE

Inquiry: What would you report for O=C1c2ccccc2C(=O)N1CCN(CCN1C(=O)c2ccccc2C1=O)Cc1ccccc1 ?
Reply text: FALSE

Inquiry: What would you report for CN(C)c1ccc(/C=C(\NC(=O)c2ccccc2)C(=O)Nc2cccc(C(=O)NCCCO)c2)cc1 ?
Reply text: FALSE

Inquiry: What would you report for OC1CCCCCCCCCCC1SCCCCl (configuration not stated) ?
Reply text: FALSE

Inquiry: What would you report for COc1ccccc1CCc1cc(OC)c(OC)c(OC)c1 ?
Reply text: FALSE

Inquiry: What would you report for O=C(NCCCCN(CCCNC(=O)C(F)(F)F)Cc1ccc2ccccc2c1)C(F)(F)F ?
Reply text: FALSE

Inquiry: What would you report for Nc1nc2c(-c3ccc([N+](=O)[O-])cc3)nnn2c2ccccc12 ?
Reply text: FALSE

Data credit: ChEMBL document CHEMBL1201862
